- methodDescription: gradient 5% acetonitrile 3 min, to 50% in 2 min, to 85% in 15 min, held 3 min, 100 µL/min
- experimentalContext: column: Zorbax Extend-C18 2.1 x 50 mm; eluents: water / acetonitrile, 0.1% formic acid
valueType: RP-LC retention time

molecule | result
Cc1cc(=O)oc2c(C)c(OCC(O)CN3CCC(C(N)=O)CC3)ccc12 (centres undefined) | 579 s
Fc1ccc(C2Cn3cnc(-c4nc(-c5cccs5)no4)c3CO2)cc1 (centres undefined) | 1010 s
COc1ccc(NC(=O)Cn2c(=O)c(CCC(=O)NCC(C)C)nc3ccccc32)cc1 | 798 s
Cc1cc(N2CCN(C)CC2)nc(N2CCN(C(=O)c3ccc(C(C)(C)C)cc3)CC2)n1 | 586 s
CCc1ccc(-c2noc(CSc3nc4cc5c(cc4c(=O)n3Cc3ccncc3)OCO5)n2)cc1 | 909 s
O=C(Nc1ccc(F)c(Cl)c1)N1CCC(N2CCN(Cc3ccccc3)C2=O)CC1 | 899 s
CC1CCN(CCCNC(=O)c2nnc(-c3ccc(S(=O)(=O)N4CCOCC4)cc3)o2)CC1 | 608 s
Nc1cc(-c2cccs2)nn1CCO | 562 s
O=C(Nc1cccc(Cl)c1)N1CCc2[nH]cnc2C1c1ccncc1 (centres undefined) | 572 s

----------
- methodDescription: gradient 5% acetonitrile 3 min, to 50% in 2 min, to 85% in 15 min, held 3 min, 100 µL/min
- experimentalContext: column: Zorbax Extend-C18 2.1 x 50 mm; eluents: water / acetonitrile, 0.1% formic acid
// NB: equality with 800 s counts as n; only RP-LC retention time strictly below is y

molecule | label
Cc1nc(-c2ccncc2)nc2c1CCC(=O)N2Cc1ccco1 | y
COc1ccc(-c2noc(CNC(=O)c3cc(C)nc4ccccc34)n2)cc1OC | y
Cc1ccccc1Cc1nc(C2CC(=O)N(c3ccc(F)c(Cl)c3)C2)no1 (stereo not given) | n
Cc1cccc(CNc2cc(-n3ccnc3)ncn2)c1 | y
CC1=C(c2ccccc2)S(=O)(=O)N=C1N1CCCN(C(=O)c2cc(F)cc(F)c2)CC1 | n
COc1cccc(N2CCN(c3ccnc(SCC(=O)Nc4ccc(F)cc4)n3)CC2)c1 | y
COc1ccc(-c2nc(-c3cccc(-c4ccnn4C)c3)no2)c(C)c1 | n
O=C(COc1cccc(Br)c1)Nc1nc(-c2ccccc2)cs1 | n
CCn1cnnc1C1CCCN(C(=O)CCc2c[nH]c3ccccc23)C1 (stereo not given) | y

----------
- methodDescription: gradient 5% acetonitrile 3 min, to 50% in 2 min, to 85% in 15 min, held 3 min, 100 µL/min
- experimentalContext: column: Zorbax Extend-C18 2.1 x 50 mm; eluents: water / acetonitrile, 0.1% formic acid
Where RP-LC retention time equals or exceeds 700 s, the correct label is rule met; where it does not, the label is rule not met.

compound | label
CC(O)(CNC(=O)c1cnc2ccccc2n1)c1ccco1 (stereo not given) | rule not met
CC(C)CN1CCN(C(=O)c2cnc(-c3ccccc3)nc2-c2ccncc2)CC1 | rule not met
CCOc1ccc(S(=O)(=O)N2CCC(c3nc(C(=O)N4CCCC4)c(C)o3)CC2)cc1 | rule met
COc1ccc(CNC(=O)C2(C)Oc3cccnc3N(C)C2=O)cc1 (stereo not given) | rule met
Cc1cc(C)cc(OCCNS(=O)(=O)c2ccc3c(c2)OCCO3)c1 | rule met
COc1ccc(NC(=O)CN2CCc3[nH]c4c(C)ccc(C)c4c(=O)c3C2)cc1OC | rule not met
CN(C)CCCn1c(C2CC(=O)N(c3ccccc3F)C2)nc2ccccc21 (stereo not given) | rule not met
COCCCNC(=O)C1CCCN(c2cnc3nccnc3c2)C1 (stereo not given) | rule not met
CCn1c(N2CCCC(C(=O)NCCN3CCN(c4ccccc4)CC3)C2)cc(=O)n(C)c1=O (stereo not given) | rule not met
CSc1ccc(CNC(=O)CN2CCc3[nH]c4c(C)c(C)ccc4c(=O)c3C2)cc1 | rule not met
CC(C)CN1C(=O)c2cccn2CC1C(=O)NCCN1CCCC1 (stereo not given) | rule not met
CCn1cc(-c2nc(CC(=O)NCc3ccc(F)cc3)cs2)c2cccnc21 | rule met
c1ccc(-c2noc(-c3ccccc3OC3CCN(Cc4nccs4)C3)n2)cc1 (stereo not given) | rule met
Cc1ccc2c(c1)C1CC(C)(O2)N(c2cccc(C(=O)NCc3ccccn3)c2)C(=O)N1 (stereo not given) | rule not met
Cc1nc(-c2csc(S(=O)(=O)N3CCCC(C(=O)Nc4ccc(F)cc4)C3)c2)no1 (stereo not given) | rule met
O=C(Cc1ccc(F)cc1)NC1CCN(c2ccccc2)C1=O (stereo not given) | rule met
COc1ccc(-c2ncc3c(n2)CCN(S(=O)(=O)c2ccc(Cl)cc2)C3)cc1 | rule met

----------
- methodDescription: gradient 5% acetonitrile 3 min, to 50% in 2 min, to 85% in 15 min, held 3 min, 100 µL/min
- experimentalContext: column: Zorbax Extend-C18 2.1 x 50 mm; eluents: water / acetonitrile, 0.1% formic acid
valueType: RP-LC retention time

compound | result
CCOc1ccc(NC(=O)N(C)CC2CCOCC2)cc1 | 719 s
CCc1nc(-c2cccc(-c3noc(COc4cccc(C)c4)n3)c2)cs1 | 1390 s
CCc1ccc(CNC(=O)C2CCc3nc(N(CC)CC)ncc3C2)cc1 (centres undefined) | 786 s
CCOC(=O)Cc1csc(NC(=O)C2CCN(c3cc(-n4ccnc4)ncn3)CC2)n1 | 576 s
CC(C)CNC(=O)C1CCN(c2nccn3nc(-c4cccs4)cc23)CC1 | 561 s
COC(=O)c1ccc(Cl)cc1NC(=O)c1cc2ccccc2o1 | 1280 s
O=c1ccn(-c2ccc(Cl)cc2)nc1-c1nc(-c2ccc(Br)cc2)no1 | 1080 s
O=c1c(O[C@@H]2O[C@H](CO)[C@H](O)[C@H](O)[C@H]2O)c(-c2ccc(O)c(O)c2)oc2cc(O)cc(O)c12 | 656 s
CCc1ccc(NC(=O)CSc2nccc(N3CCN(c4cc(C)ccc4C)CC3)n2)cc1 | 995 s
Cc1cc(F)ccc1NC(=O)C1CCCN1S(=O)(=O)c1cc2c(cc1C)NC(=O)C(C)O2 (centres undefined) | 812 s
Cn1c(=O)c(C(=O)N2CCN(c3ccccn3)CC2)nn(-c2ccc(Cl)cc2)c1=O | 663 s
Cc1cc(NC(=O)NCCc2c(C)nn(C)c2C)ccc1Br | 705 s
O=C(C1CCCCC1)N1CCCN(c2ncccc2-c2nc(C3CC3)no2)CC1 | 1010 s
COCCC1CCN(C(=O)CN(C)C(=O)c2ccnn2C)CC1 | 586 s
O=C(Nc1cc(F)ccc1F)C1CCCN(c2ncnc3c2nc2n3CCCCC2)C1 (centres undefined) | 774 s
O=c1c2oc3ccccc3c2ncn1Cc1nc(-c2ccc(OC(F)(F)F)cc2)no1 | 1050 s
O=C(c1ccc(-c2cccnc2)nc1)N1CCN(c2ccccc2)CC1 | 663 s
CCOc1ccc(NC(=O)Cn2cccc(-c3nc(-c4ccc(Br)cc4)no3)c2=O)cc1 | 1020 s
CCSc1nnc(NC(=O)Cn2nc(-c3ccncc3)ccc2=O)s1 | 561 s

----------
- methodDescription: gradient 5% acetonitrile 3 min, to 50% in 2 min, to 85% in 15 min, held 3 min, 100 µL/min
- experimentalContext: column: Zorbax Extend-C18 2.1 x 50 mm; eluents: water / acetonitrile, 0.1% formic acid
# RP-LC retention time listing for each entry below
valueType: RP-LC retention time (s)

molecule | unitsText | quantitativeReadout
CS(=O)(=O)N1CCC(C(=O)NCc2ccccc2)Oc2ccccc21 (stereo not given) | s | 807
O=C(Cc1ccc(NC(=O)C2CCCC2)cc1)NCC(F)(F)F | s | 727
COCCN1C(=O)[C@H]2CN(C(=O)Nc3ccccc3)C[C@H]2C1=O | s | 732
Cn1nccc1C(=O)NCc1ccc2c(c1)CCN2C(=O)c1ccccc1 | s | 759
CCCn1cc(S(=O)(=O)N2CCN(c3ccccc3Cl)CC2)c2cccnc21 | s | 1150

----------
- methodDescription: gradient 5% acetonitrile 3 min, to 50% in 2 min, to 85% in 15 min, held 3 min, 100 µL/min
- experimentalContext: column: Zorbax Extend-C18 2.1 x 50 mm; eluents: water / acetonitrile, 0.1% formic acid
RP-LC retention time values, listed per item

compound | unitsText | RP-LC retention time
Cc1nc(-c2cc3cccc(C)c3nc2NCCc2ccccn2)no1 | s | 764
CCc1cccc(NC(=O)Nc2ccc3nnc(C)n3c2)c1 | s | 730
O=C(NCCOc1ccc2c(c1)OCO2)c1ccccc1Cl | s | 785
O=C(NC1CCc2ccccc21)C1CCCN(c2ncnc3c2oc2ccccc23)C1 (stereo not given) | s | 816
Cc1cc(N(C)C)nc(N2CCN(C(=O)c3ccc(Br)cc3)CC2)n1 | s | 658
O=C(Nc1cccc(-c2nnc3n2CCCC3)c1)c1nccc2ccccc12 | s | 769
CCn1c(=O)sc2cc(S(=O)(=O)N3CCC(C(=O)NC4CCCc5ccccc54)CC3)ccc21 (stereo not given) | s | 957
Nc1ccccc1Sc1cc(Cl)nnc1Cl | s | 983
CC1=C(c2ccc(Cl)cc2)S(=O)(=O)N=C1N1CCC(C(=O)NCCc2ccco2)CC1 | s | 870
CCN1C(=O)C2(CCN(C(=O)CC(C)C)CC2)c2ccccc21 | s | 818
O=C(c1csc(-c2cccnc2)n1)N1CCN(c2ncccn2)CC1 | s | 648
Cc1nc(-c2ccncc2)nc2c1CCC(=O)N2CCC1=CCCCC1 | s | 912
Cc1cccc(N2CCN(S(=O)(=O)c3cc4n(c3)CCCN(C(C)C)C4=O)CC2)c1 | s | 921
Cc1ccc(NC(=O)NCC(c2cccnc2)c2cn(C)c3ccccc23)cc1Cl (stereo not given) | s | 773
O=C(c1cnn2cccnc12)N1CCCC1c1cccc(F)c1 (stereo not given) | s | 754
CCc1noc(NC(C)=O)c1-c1ccc(OC)c(S(=O)(=O)NCc2ccccc2)c1 | s | 766
COc1cc(OC)cc(C(=O)N2C[C@@H]3C[C@H](NC(=O)c4cccs4)[C@H]2C3)c1 | s | 660
CCc1ccc(C2=C(C)C(N3CCCN(C(=O)CC(C)C)CC3)=NS2(=O)=O)cc1 | s | 874
CSc1ncccc1C(=O)N(Cc1cccs1)Cc1cccn1C | s | 904
CCOC(=O)c1cn[nH]c1S(=O)(=O)N1CCC(C(N)=O)CC1 | s | 585

The measured values listed here are drawn from the METLIN SMRT retention time set (Domingo-Almenara et al. 2019).
